Reported MIC50 values are given for each entry in this list.
Test system: Staphylococcus aureus
Test: Antimicrobial activity against Staphylococcus aureus ATCC 6538 by MTT assay
Assay type: functional

Example molecules with recorded MIC50:
Entry CC(=O)OC[C@H]1O[C@@H](n2cnc3c(N)ncnc32)[C@H](O)[C@@H]1O ; MIC50 = > 100 µg/mL

Entry Cc1ccc(CC(=O)OC[C@H]2O[C@@H](n3cnc4c(N)ncnc43)[C@H](O)[C@@H]2O)cc1 ; MIC50 = 47.4 µg/mL

***
Entry CCCCCCCCCC(=O)OC[C@H]1O[C@@H](n2cnc3c(N)ncnc32)[C@H](O)[C@@H]1O ; MIC50 = > 100 µg/mL

Entry COc1ccc(CC(=O)OC[C@H]2O[C@@H](n3cnc4c(N)ncnc43)[C@H](O)[C@@H]2O)cc1OC ; MIC50 = > 100 µg/mL
